Target: T1, FBF-2 RBD (Caenorhabditis elegans, UniProt Q09312 164-575)
T1 sequence: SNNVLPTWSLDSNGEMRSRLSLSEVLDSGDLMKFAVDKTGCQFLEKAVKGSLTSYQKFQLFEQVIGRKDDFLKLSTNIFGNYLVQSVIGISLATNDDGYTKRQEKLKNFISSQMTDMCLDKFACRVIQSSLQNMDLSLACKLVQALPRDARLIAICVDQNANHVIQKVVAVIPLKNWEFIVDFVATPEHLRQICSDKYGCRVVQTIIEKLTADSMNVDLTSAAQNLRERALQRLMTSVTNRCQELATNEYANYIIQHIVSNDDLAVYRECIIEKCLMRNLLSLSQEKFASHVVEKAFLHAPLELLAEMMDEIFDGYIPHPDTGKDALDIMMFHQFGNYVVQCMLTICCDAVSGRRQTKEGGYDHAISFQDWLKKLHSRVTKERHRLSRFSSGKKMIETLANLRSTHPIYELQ
Assay: SPR; kon 13.6e4 M-1 s-1, koff 0.86e-3 s-1; EMSA: FBF-2 in 20 mM HEPES pH 7.4, 150 mM NaCl, 0.5 mM TCEP mixed 1:1 with 5 nM final RNA in 10 mM HEPES pH 7.4, 0.01% Tween 20, 0.1 mg/ml BSA, 0.1 mg/ml yeast
Details: protein: recombinant; tags: none (His6-SUMO removed with TEV protease); label: 3'-biotin
measurementLabel: Kd (nM)
Give the value, in units of nM, as a plain number.

Per the records, this binder ( AUCAUGUGCCAUACA (ssRNA) [gld-1 FBEa RNA (SPR)] ) has Kd equal to 6.6

Reference source: paper PMC10641069
